All values here come from patent US20240150375A1.

Target: Ba/F3 EGFR-Del19/T790M/C797S (Homo sapiens, UniProt P00533, T790M/C797S, cells depend on it, form not given)
Sequence (P00533 with tags, fused parts or gaps DEL746-750/T790M/C797S, form open): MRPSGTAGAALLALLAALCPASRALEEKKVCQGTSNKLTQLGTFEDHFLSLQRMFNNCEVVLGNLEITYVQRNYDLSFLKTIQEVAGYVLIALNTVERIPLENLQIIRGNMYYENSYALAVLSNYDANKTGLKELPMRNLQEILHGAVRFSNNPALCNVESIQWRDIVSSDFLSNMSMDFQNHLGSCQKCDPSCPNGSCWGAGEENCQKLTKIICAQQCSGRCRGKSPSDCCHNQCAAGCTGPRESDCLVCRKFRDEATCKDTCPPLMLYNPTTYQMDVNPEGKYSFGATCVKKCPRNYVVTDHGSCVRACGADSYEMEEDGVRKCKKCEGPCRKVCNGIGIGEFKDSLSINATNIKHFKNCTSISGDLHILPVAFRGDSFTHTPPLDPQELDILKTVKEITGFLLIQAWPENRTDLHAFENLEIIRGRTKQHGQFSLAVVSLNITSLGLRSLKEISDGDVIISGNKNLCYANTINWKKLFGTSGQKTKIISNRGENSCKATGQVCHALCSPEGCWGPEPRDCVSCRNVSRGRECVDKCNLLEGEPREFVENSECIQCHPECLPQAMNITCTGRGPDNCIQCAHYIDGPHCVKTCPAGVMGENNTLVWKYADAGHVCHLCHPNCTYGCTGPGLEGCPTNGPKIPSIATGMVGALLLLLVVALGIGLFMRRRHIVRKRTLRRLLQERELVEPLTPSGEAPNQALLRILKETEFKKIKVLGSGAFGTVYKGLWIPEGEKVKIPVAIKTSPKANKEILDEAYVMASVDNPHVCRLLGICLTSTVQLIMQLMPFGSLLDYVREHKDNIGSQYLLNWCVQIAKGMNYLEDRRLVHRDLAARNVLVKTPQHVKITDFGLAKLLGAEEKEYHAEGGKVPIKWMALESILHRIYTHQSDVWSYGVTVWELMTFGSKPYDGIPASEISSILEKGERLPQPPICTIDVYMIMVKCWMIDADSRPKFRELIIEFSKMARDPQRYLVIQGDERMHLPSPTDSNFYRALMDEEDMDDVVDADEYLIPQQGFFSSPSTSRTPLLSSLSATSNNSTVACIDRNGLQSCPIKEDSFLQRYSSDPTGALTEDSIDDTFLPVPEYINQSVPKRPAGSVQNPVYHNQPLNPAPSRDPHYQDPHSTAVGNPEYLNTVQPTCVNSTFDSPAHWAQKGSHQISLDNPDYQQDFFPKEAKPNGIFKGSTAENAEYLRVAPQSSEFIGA
Assay: Ba/F3 viability assay (CellTiter-Glo), EGFR-Del19/T790M/C797S (DTC)
Type: cell-based
Conditions: Ba/F3 EGFR-Del19/T790M/C797S anti-proliferation; read-out: BAF3 DTC IC50
Assay Endpoint: GI50

| Chemical Smiles | Measured |
| --- | --- |
| CCCOc1nn(C2CC2)cc1-c1cnc2cc1O[C@@H](C)CCOc1c(cnn1C)-c1nccc(n1)N2 | < 50 nM |
| C[C@H]1CCOc2c(cnn2C)-c2nccc(n2)Nc2cc(c(-c3ncc(CN4CCN(C)CC4)s3)cn2)O1 | < 50 nM |
| C[C@H]1CCOc2c(cnn2C)-c2nccc(n2)Nc2cc(c(-c3cn(C)cc3OCC(F)(F)F)cn2)O1 | < 50 nM |
